B1: DnaJ homolog subfamily C member 2, residues 451 to 503; numbered along this chain, Q99543 (parent)
chain: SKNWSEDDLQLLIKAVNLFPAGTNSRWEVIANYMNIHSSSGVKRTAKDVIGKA

- Variants of: B1
- ASSAY PROTOCOL: abundance fitness (aPCA) (normalised: wild type 0, dead -1); higher = more abundant; growth selection in yeast, the domain comes from the species named
- ASSAY SETUP: Homo sapiens
ENDPOINT: abundance fitness

Below, each entry is followed by its recorded abundance fitness result.
## Task I have this variant here, D48M , and I need its recorded abundance fitness.
## Result -0.396

## Task What does the data say about its abundance fitness? Entry: A15C
## Result -0.279

## Task Quick check: abundance fitness of K14Y ?
## Result -0.207

## Task Give its abundance fitness value. Item: E28M
## Result -0.44

## Task # abundance fitness lookup, item N17Y
## Result -0.194

## Task Look at this variant and give its reported abundance fitness. I30S
## Result -0.947

## Task Fill blank: measured abundance fitness of the variant F19A is ____.
## Result -0.536

## Task Reported abundance fitness for V42A : what is it?
## Result -0.685

## Task Recorded abundance fitness of L18Y , please.
## Result -0.173

## Task If you can, please state the reported abundance fitness value of A46P .
## Result -0.083

Next:
## Task Record request: abundance fitness value, item G22I
## Result -0.194

// provenance: the Human Domainome abundance scans (Beltran et al. 2025)
